# Experimental system: human orexin-2 receptor (Homo sapiens (Human), UniProt O43614)
# Sequence (O43614 whole entry): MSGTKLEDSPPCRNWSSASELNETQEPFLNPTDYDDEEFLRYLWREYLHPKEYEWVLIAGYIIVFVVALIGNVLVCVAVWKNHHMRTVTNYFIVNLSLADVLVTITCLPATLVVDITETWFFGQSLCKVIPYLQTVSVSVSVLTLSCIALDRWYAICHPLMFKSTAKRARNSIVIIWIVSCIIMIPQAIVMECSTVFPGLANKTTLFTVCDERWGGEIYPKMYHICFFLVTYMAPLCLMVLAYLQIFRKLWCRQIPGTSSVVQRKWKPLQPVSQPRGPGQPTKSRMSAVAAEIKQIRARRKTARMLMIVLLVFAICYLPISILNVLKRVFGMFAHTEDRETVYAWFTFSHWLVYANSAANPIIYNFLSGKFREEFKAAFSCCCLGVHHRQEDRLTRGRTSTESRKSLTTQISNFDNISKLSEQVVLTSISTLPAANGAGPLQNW
# Protocol notes: In vitro assay: intracellular calcium measurements (FLIPR), antagonistic activity
# Test settings: CHO cells expressing human orexin-2 receptor, orexin-A agonist, geometric mean, read-out: IC50 Ox2
pIC50: −log10 of the molar value.
Quantity name: pIC50

Consider the reported pIC50 for these molecules:
[
  {
    "Molecule": "CO[C@@H]1C[C@@H](c2nc3c(C)c(Cl)ccc3[nH]2)N(C(=O)c2cc(C)ccc2-n2nccn2)C1",
    "Result value": 8.22
  },
  {
    "Molecule": "COc1cc2nc([C@]3(C)CCCN3C(=O)c3sc(C)nc3-c3ccc(C)cc3)[nH]c2cc1OC",
    "Result value": 6.90
  }
]

[P] Cc1cccc(-c2nc(C(=O)N3CCC[C@@]3(C)c3nc4cc(Cl)c(C(F)(F)F)cc4[nH]3)c(-c3ccc(F)cc3)s2)c1
[Q] Cc1ccc(-n2nccn2)c(C(=O)N2CCC[C@@]2(C)c2nc3c(F)c(F)ccc3[nH]2)c1
query: Higher pIC50: P or Q ? Respond using the label that marks the chosen record.
result: Q
(Q: 6.29, P: 5.93)

[1] Cc1nc(C(=O)N2CC[C@H](C)[C@H]2c2nc3c(C(F)(F)F)cccc3[nH]2)c(-c2cc(F)cc(F)c2)s1
[2] Cc1nc(C(=O)N2CCCC2c2nc3c(Cl)cc(C(F)(F)F)cc3[nH]2)c(-c2ccccc2)s1 (stereo not shown)
[3] Cc1nc(C(=O)N2CC[C@H](C)[C@H]2c2nc3c(C)c(C)ccc3[nH]2)c(-c2cccc(Cl)c2)s1
query: rank_up(items): orders items by reported pIC50 in ascending numerical order. Put the labels in the requested order and write them down.
result: 1, 3, 2
(1: 5.77, 3: 6.44, 2: 7.14)
